- TESTED_ON: FAK (Homo sapiens, UniProt Q05397)
- Construct: purchased Eurofins DiscoverX KINOMEscan (scanTK)
- Sequence (Q05397 whole entry): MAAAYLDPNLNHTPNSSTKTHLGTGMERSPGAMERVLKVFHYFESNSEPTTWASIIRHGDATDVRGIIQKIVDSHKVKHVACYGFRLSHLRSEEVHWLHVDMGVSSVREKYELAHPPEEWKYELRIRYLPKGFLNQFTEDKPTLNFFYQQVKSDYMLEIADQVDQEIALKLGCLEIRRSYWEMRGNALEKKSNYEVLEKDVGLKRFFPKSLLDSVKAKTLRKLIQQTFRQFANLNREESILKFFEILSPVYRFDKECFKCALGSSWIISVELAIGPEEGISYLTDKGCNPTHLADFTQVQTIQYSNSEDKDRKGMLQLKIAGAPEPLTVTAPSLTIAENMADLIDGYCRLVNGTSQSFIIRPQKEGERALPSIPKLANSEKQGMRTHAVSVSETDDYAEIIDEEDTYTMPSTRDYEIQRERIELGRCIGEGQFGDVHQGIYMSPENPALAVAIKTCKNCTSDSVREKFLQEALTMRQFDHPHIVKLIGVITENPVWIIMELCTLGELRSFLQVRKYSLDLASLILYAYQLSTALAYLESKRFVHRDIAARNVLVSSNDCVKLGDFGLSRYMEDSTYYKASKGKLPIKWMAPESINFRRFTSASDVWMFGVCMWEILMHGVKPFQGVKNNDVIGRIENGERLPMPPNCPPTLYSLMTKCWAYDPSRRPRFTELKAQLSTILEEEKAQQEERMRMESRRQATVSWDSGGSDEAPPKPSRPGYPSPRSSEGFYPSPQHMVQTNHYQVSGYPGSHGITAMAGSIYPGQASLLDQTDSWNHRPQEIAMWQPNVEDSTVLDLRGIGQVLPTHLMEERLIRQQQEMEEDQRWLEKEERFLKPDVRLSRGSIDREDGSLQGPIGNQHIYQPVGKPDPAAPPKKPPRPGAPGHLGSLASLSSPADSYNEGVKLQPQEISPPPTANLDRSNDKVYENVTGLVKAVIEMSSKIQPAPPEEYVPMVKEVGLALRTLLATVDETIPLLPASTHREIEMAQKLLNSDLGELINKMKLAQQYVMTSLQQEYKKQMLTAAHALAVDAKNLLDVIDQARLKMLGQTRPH
- METHOD: KINOMEscan ScanTK
- Format: binding
- SETTINGS: @1000nM, read-out: %Control
Please respond with reported remaining binding at 1 µM for every item in the list.
Report as a plain number; the unit % is understood.

Ask: What does the record list as remaining binding at 1 µM for COC(=O)c1cnc(S(C)(=O)=O)nc1N1CCCC(n2nc(-c3ccc(Oc4ccccc4)cc3)c3c(N)ncnc32)C1 (centres unmarked) ?
Result: 100

Ask: // query remaining binding at 1 µM value for entry Cc1cnc(S(C)(=O)=O)nc1N1CCCC(n2nc(-c3ccc(Oc4ccccc4)cc3)c3c(N)ncnc32)C1 (centres unmarked)
Result: 99

Ask: Consider the compound shown here: C=CC(=O)N1CCC[C@@H](n2nc(-c3ccc(Oc4ccccc4)cc3)c3c(N)ncnc32)C1 [Compound 1g, Ibrutinib, reference compound] What is its recorded remaining binding at 1 µM?
Result: 100

Ask: Return reported remaining binding at 1 µM; argument: CNC(=O)c1cnc(S(C)(=O)=O)nc1N1CCCC(n2nc(-c3ccc(Oc4ccccc4)cc3)c3c(N)ncnc32)C1 (centres unmarked)
Result: 100

Ask: Suppose we examine the compound CCOC(=O)c1cnc(S(C)(=O)=O)nc1N1CCC[C@@H](n2nc(-c3ccc(Oc4ccccc4)cc3)c3c(N)ncnc32)C1 ; what remaining binding at 1 µM value has been reported?
Result: 96

* * *

- TESTED_ON: ABL1(Q252H)-phosphorylated (Homo sapiens, UniProt P00519, Q252H)
- Construct: purchased Eurofins DiscoverX KINOMEscan (scanTK)
- METHOD: KINOMEscan ScanTK
- Assay type: binding
- SETTINGS: read-out: %Control @1000nM
MEASURED_ATTRIBUTE: remaining binding at 1 µM

Ask: Item under review: CNC(=O)c1cnc(S(C)(=O)=O)nc1N1CCCC(n2nc(-c3ccc(Oc4ccccc4)cc3)c3c(N)ncnc32)C1 (stereo not shown) [Compound 8d] . Reported remaining binding at 1 µM?
Result: 93%

Ask: May I ask what remaining binding at 1 µM has been recorded for COC(=O)c1cnc(S(C)(=O)=O)nc1N1CCCC(n2nc(-c3ccc(Oc4ccccc4)cc3)c3c(N)ncnc32)C1 (stereo not shown) [Compound 8b] ?
Result: 92%

Ask: # get_value(readout='remaining binding at 1 µM', item= CCOC(=O)c1cnc(S(C)(=O)=O)nc1N1CCC[C@@H](n2nc(-c3ccc(Oc4ccccc4)cc3)c3c(N)ncnc32)C1 [Compound 8c] )
Result: 92%

Ask: Please look up its remaining binding at 1 µM: Cc1cnc(S(C)(=O)=O)nc1N1CCCC(n2nc(-c3ccc(Oc4ccccc4)cc3)c3c(N)ncnc32)C1 (stereo not shown) [Compound 8a]
Result: 98%

* * *

Answer each item with its documented remaining binding at 1 µM.
- TESTED_ON: FLT1 (Homo sapiens)
- Construct: purchased Eurofins DiscoverX KINOMEscan (scanTK)
- Sequence (P17948 27-1338): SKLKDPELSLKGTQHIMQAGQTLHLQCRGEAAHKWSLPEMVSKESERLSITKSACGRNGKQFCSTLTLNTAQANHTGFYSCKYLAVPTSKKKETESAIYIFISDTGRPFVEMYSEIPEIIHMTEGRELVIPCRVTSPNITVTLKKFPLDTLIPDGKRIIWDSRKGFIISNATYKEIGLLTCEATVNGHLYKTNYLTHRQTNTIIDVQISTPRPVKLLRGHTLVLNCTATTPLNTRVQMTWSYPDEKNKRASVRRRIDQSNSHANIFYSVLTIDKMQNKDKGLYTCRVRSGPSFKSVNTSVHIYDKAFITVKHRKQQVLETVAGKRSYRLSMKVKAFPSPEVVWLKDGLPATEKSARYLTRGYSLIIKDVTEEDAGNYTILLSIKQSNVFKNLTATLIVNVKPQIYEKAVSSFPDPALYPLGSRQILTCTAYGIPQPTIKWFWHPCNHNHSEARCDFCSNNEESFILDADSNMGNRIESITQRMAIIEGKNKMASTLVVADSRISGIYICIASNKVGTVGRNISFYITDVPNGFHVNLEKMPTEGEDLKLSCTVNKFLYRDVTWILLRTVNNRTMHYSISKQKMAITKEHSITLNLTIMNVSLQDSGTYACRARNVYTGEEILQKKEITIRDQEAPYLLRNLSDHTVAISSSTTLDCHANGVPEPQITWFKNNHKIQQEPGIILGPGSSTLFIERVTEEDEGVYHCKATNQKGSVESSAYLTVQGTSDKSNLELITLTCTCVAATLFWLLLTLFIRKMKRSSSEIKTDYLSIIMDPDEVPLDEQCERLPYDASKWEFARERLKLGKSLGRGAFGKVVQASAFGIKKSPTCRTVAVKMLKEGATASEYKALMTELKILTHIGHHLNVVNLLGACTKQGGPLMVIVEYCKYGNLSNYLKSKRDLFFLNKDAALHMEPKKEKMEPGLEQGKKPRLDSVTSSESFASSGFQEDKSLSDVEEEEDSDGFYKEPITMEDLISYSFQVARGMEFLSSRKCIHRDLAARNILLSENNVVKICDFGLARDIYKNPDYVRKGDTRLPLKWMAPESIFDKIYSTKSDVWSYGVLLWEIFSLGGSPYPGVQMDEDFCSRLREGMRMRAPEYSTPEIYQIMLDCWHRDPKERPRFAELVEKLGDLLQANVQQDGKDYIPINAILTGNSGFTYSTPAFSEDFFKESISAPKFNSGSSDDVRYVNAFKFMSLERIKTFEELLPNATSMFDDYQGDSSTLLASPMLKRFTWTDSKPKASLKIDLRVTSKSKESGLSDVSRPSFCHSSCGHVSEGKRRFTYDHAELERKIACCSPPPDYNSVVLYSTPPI
- METHOD: KINOMEscan ScanTK
- Assay type: binding
- SETTINGS: read-out: %Control @1000nM
// note: answer is a bare numeric in %

Ask: Please look up its remaining binding at 1 µM: C=CC(=O)N1CCC[C@@H](n2nc(-c3ccc(Oc4ccccc4)cc3)c3c(N)ncnc32)C1 [Compound 1g, Ibrutinib, reference compound]
Result: 72

Ask: Find the recorded remaining binding at 1 µM belonging to Cc1cnc(S(C)(=O)=O)nc1N1CCCC(n2nc(-c3ccc(Oc4ccccc4)cc3)c3c(N)ncnc32)C1 (centres unmarked) and report it.
Result: 93

Ask: Fill blank: measured remaining binding at 1 µM of the compound CCOC(=O)c1cnc(S(C)(=O)=O)nc1N1CCC[C@@H](n2nc(-c3ccc(Oc4ccccc4)cc3)c3c(N)ncnc32)C1 is ____.
Result: 100

Ask: Given the compound CNC(=O)c1cnc(S(C)(=O)=O)nc1N1CCCC(n2nc(-c3ccc(Oc4ccccc4)cc3)c3c(N)ncnc32)C1 (centres unmarked) , what is its reported remaining binding at 1 µM?
Result: 100

Ask: Form field: reported remaining binding at 1 µM of COC(=O)c1cnc(S(C)(=O)=O)nc1N1CCCC(n2nc(-c3ccc(Oc4ccccc4)cc3)c3c(N)ncnc32)C1 (centres unmarked)
Result: 98
